CONDITION NOTES: mouse, microsomes, 1 µM
Description: DNDI: in vitro intrinsic clearance in mouse liver microsomes at a concentration of 1uM
READOUT NAME: CLint in vitro (µL/min/mg)
I only need the number, in µL/min/mg, no unit after it.

Reported CLint in vitro for `CCCOc1ccc(-c2nc(CN[C@@H]3C[C@@H]4C[C@H]([C@H]3C)C4(C)C)co2)cc1` : what is it?
30

Could you do the same for `CCc1ccccc1N/C(=N\O)c1ccc(OC)cc1` , please?
397

Could you do the same for CC1CC(NCc2coc(-c3ccc(-c4ccccc4)cc3)n2)CC(C)(C)C1 (centres undefined) , please?
6

Could you do the same for CCCCCC(C)NCc1coc(-c2ccc(OC(C)C)cc2)n1 (centres undefined) , please?
24

Data provenance: ChEMBL document CHEMBL1857833
